assay: In vitro cytotoxicity by MTT assay, HEK 293; format: cell-based, human; conditions: human, HEK 293 cells, 0.005 μM, read-out: % cytotoxicity (100 − % cell survival) of HEK 293 cell line
measure: cytotoxicity at 72 h, 0.005 µM (%)
Answers are plain numbers, in %.

| compound | cytotoxicity at 72 h, 0.005 µM, % |
| --- | --- |
| O=C(NS(=O)(=O)c1nnc(N=Cc2ccccc2O)s1)c1ccccc1 [Compound 9f] | 32.5 |
| Nc1ccc(C(=O)NS(=O)(=O)c2nnc(N)s2)cc1 [Compound 4c] | 36.3 |
| O=C(NS(=O)(=O)c1nnc(N=Cc2ccc(O)cc2)s1)c1ccccc1 [Compound 9e] | 25.3 |
| Nc1ccc(S(=O)(=O)Nc2nnc(S(=O)(=O)NC(=O)c3ccc([N+](=O)[O-])cc3)s2)cc1 [Compound 7e] | 26.9 |
| Nc1nnc(S(=O)(=O)NC(=O)c2ccc(Cl)cc2)s1 [Compound 4g] | 39.3 |

Please supply cytotoxicity at 72 h, 0.005 µM for each of the following items, keeping them in order.
1. CN(C)c1ccc(C=Nc2nnc(S(=O)(=O)NC(=O)c3ccccc3)s2)cc1 [Compound 9h]
2. CC(=O)Nc1ccc(S(=O)(=O)Nc2nnc(S(=O)(=O)NC(=O)c3ccccc3O)s2)cc1 [Compound 6d]
3. NS(=O)(=O)c1ccc(S(=O)(=O)Nc2cccc3c(Cl)c[nH]c23)cc1 [ISL, indisulam, reference compound]

1: 32; 2: 33.3; 3: 42.3

----------
assay: Nitric oxide radical scavenging (sodium nitroprusside, Griess reaction); assay type: biochemical; details: Conc. ± SD; standard curcumin; read-out: IC50 inhibitory concentration, Nitric oxide radical
measure: IC50 (µM)
Answers are plain numbers, in µM.

Please supply IC50 for each of the following items, keeping them in order.
1. O=C(NS(=O)(=O)c1nnc(N=Cc2ccccc2)s1)c1ccccc1 [Compound 9a]
2. O=C(NS(=O)(=O)c1nnc(N=Cc2ccc(O)cc2)s1)c1ccccc1 [Compound 9e]
3. COc1ccc(C=Nc2nnc(S(=O)(=O)NC(=O)c3ccccc3)s2)cc1 [Compound 9d]
4. O=C(NS(=O)(=O)c1nnc(N=Cc2ccc(Cl)cc2)s1)c1ccccc1 [Compound 9b]
5. COc1ccccc1C=Nc1nnc(S(=O)(=O)NC(=O)c2ccccc2)s1 [Compound 9c]
6. O=C(NS(=O)(=O)c1nnc(N=Cc2ccccc2O)s1)c1ccccc1 [Compound 9f]

[104, 155, 53, 52.6, 81.9, 38]

----------
system: root meristem cells of Allium cepa; assay: In vitro antimitotic activity and cytogenetic analysis, Allium cepa meristem root model; type: cell-based; settings: compounds 1 mg/mL, PC (EMS) 2 × 10^−2 M
Exercise: for every item that follows, state its recorded Stickiness (%) ± SEM.
Numbers only, in %.

| compound | Stickiness (%) ± SEM |
| --- | --- |
| CCOS(C)(=O)=O [PC, Ethyl methanesulphonate, reference compound] | 36.31 |
| O=C(NS(=O)(=O)c1nnc(N=Cc2ccccc2)s1)c1ccccc1 | 6.64 |
| O=C(NS(=O)(=O)c1nnc(N=Cc2ccccc2O)s1)c1ccccc1 | 21.96 |
| COc1ccccc1C=Nc1nnc(S(=O)(=O)NC(=O)c2ccccc2)s1 | 28.04 |
| CN(C)c1ccc(C=Nc2nnc(S(=O)(=O)NC(=O)c3ccccc3)s2)cc1 | 16.50 |

Please supply Stickiness (%) ± SEM for each of the following items, keeping them in order.
1. COc1ccc(C=Nc2nnc(S(=O)(=O)NC(=O)c3ccccc3)s2)cc1
2. O=C(NS(=O)(=O)c1nnc(N=Cc2ccc(O)cc2)s1)c1ccccc1

1: 14.48; 2: 9.88

Please supply Stickiness (%) ± SEM for each of the following items, keeping them in order.
1. O=C(NS(=O)(=O)c1nnc(N=Cc2ccc(Cl)cc2)s1)c1ccccc1
2. COc1cc(C=Nc2nnc(S(=O)(=O)NC(=O)c3ccccc3)s2)ccc1O

1. 9.12
2. 32.24

----------
assay: In vitro cytotoxicity by MTT assay, HEK 293; assay type: cell-based, human; settings: human, HEK 293 cells, 0.045 μM, read-out: % cytotoxicity (100 − % cell survival) of HEK 293 cell line
measure: cytotoxicity at 72 h, 0.045 µM (%)
Numbers only, in %.

Observe how each entry below is paired with its result.
| structure | measure | recorded-result |
| --- | --- | --- |
| Nc1ccc(S(=O)(=O)Nc2nnc(S(=O)(=O)NC(=O)c3ccccc3)s2)cc1 | cytotoxicity at 72 h, 0.045 µM | 26.4 |
| Nc1nnc(S(=O)(=O)NC(=O)c2ccccc2O)s1 | cytotoxicity at 72 h, 0.045 µM | 39.4 |

Please supply cytotoxicity at 72 h, 0.045 µM for each of the following items, keeping them in order.
1. O=C(NS(=O)(=O)c1nnc(N=Cc2ccc(O)cc2)s1)c1ccccc1
2. Nc1nnc(S(=O)(=O)NC(=O)c2ccc([N+](=O)[O-])cc2)s1
3. Nc1nnc(S(=O)(=O)NC(=O)c2ccccc2)s1

[26.6, 34.1, 26.6]

----------
test: In vitro cytotoxicity by MTT assay, HEK 293; type: cell-based, human; settings: human, HEK 293 cells, 0.015 μM, read-out: % cytotoxicity (100 − % cell survival) of HEK 293 cell line
measure: cytotoxicity at 72 h, 0.015 µM (%)
Numbers only, in %.

| structure | measure | scale-unit | recorded-result |
| --- | --- | --- | --- |
| Nc1ccc(S(=O)(=O)Nc2nnc(S(=O)(=O)NC(=O)c3ccccc3N)s2)cc1 | cytotoxicity at 72 h, 0.015 µM | % | 39.2 |
| COc1ccccc1C=Nc1nnc(S(=O)(=O)NC(=O)c2ccccc2)s1 | cytotoxicity at 72 h, 0.015 µM | % | 38.2 |
| O=C(NS(=O)(=O)c1nnc(N=Cc2ccc(Cl)cc2)s1)c1ccccc1 | cytotoxicity at 72 h, 0.015 µM | % | 34.1 |
| Nc1nnc(S(=O)(=O)NC(=O)c2ccc(Cl)cc2)s1 | cytotoxicity at 72 h, 0.015 µM | % | 40.5 |
| CC(=O)Nc1ccc(S(=O)(=O)Nc2nnc(S(=O)(=O)NC(=O)c3ccc(Cl)cc3)s2)cc1 | cytotoxicity at 72 h, 0.015 µM | % | 16.5 |
| Nc1nnc(S(=O)(=O)NC(=O)c2ccccc2)s1 | cytotoxicity at 72 h, 0.015 µM | % | 25.8 |
| O=C(NS(=O)(=O)c1nnc(N=Cc2ccc(O)cc2)s1)c1ccccc1 | cytotoxicity at 72 h, 0.015 µM | % | 26.7 |

Please look at the following molecule next.
Looking for the measured cytotoxicity at 72 h, 0.015 µM of `CC(=O)Nc1ccc(S(=O)(=O)Nc2nnc(S(=O)(=O)NC(=O)c3ccc([N+](=O)[O-])cc3)s2)cc1` , can you help? 42

----------
experiment: In vitro cytotoxicity by MTT assay, HEK 293; format: cell-based, human; conditions: human, HEK 293 cells, 100 μM, read-out: % cytotoxicity (100 − % cell survival) of HEK 293 cell line
measure: cytotoxicity at 72 h, 100 µM (%)
Answers are plain numbers, in %.

| compound | measure | scale-unit | recorded-result |
| --- | --- | --- | --- |
| O=C(NS(=O)(=O)c1nnc(N=Cc2ccccc2)s1)c1ccccc1 [Compound 9a] | cytotoxicity at 72 h, 100 µM | % | 50.6 |
| COc1ccc(C=Nc2nnc(S(=O)(=O)NC(=O)c3ccccc3)s2)cc1 [Compound 9d] | cytotoxicity at 72 h, 100 µM | % | 38.9 |
| O=C(NS(=O)(=O)c1nnc(N=Cc2ccccc2O)s1)c1ccccc1 [Compound 9f] | cytotoxicity at 72 h, 100 µM | % | 42.8 |
| Nc1nnc(S(=O)(=O)NC(=O)c2ccc(Cl)cc2)s1 [Compound 4g] | cytotoxicity at 72 h, 100 µM | % | 50.2 |
| CC(=O)Nc1ccc(S(=O)(=O)Nc2nnc(S(=O)(=O)NC(=O)c3ccccc3N)s2)cc1 [Compound 6b] | cytotoxicity at 72 h, 100 µM | % | 48.2 |

Please supply cytotoxicity at 72 h, 100 µM for each of the following items, keeping them in order.
1. O=C(NS(=O)(=O)c1nnc(N=Cc2ccc(Cl)cc2)s1)c1ccccc1 [Compound 9b]
2. Nc1nnc(S(=O)(=O)NC(=O)c2ccccc2O)s1 [Compound 4d]
3. O=C(NS(=O)(=O)c1nnc(N=Cc2ccco2)s1)c1ccccc1 [Compound 9j]
4. CC(=O)Nc1ccc(S(=O)(=O)Nc2nnc(S(=O)(=O)NC(=O)c3ccc(N)cc3)s2)cc1 [Compound 6c]

1. 40.7
2. 48.1
3. 38.9
4. 38.8

----------
assay: In vitro cytotoxicity by MTT assay, NCI-H226; assay type: cell-based; conditions: human, NCI-H226 lung cancer cells, 0.015 μM, read-out: % Cytotoxicity (100 − % cell survival) of NCI-H226 cell line
measure: cytotoxicity at 72 h, 0.015 µM (%)
One number for each entry, in %.

Observe how each entry below is paired with its result.
| structure | measure | scale-unit | recorded-result |
| --- | --- | --- | --- |
| COc1ccc(C=Nc2nnc(S(=O)(=O)NC(=O)c3ccccc3)s2)cc1 | cytotoxicity at 72 h, 0.015 µM | % | 36.3 |
| CC(=O)Nc1ccc(S(=O)(=O)Nc2nnc(S(=O)(=O)NC(=O)c3ccccc3N)s2)cc1 | cytotoxicity at 72 h, 0.015 µM | % | 37.3 |

Please supply cytotoxicity at 72 h, 0.015 µM for each of the following items, keeping them in order.
1. Nc1nnc(S(=O)(=O)NC(=O)c2ccc([N+](=O)[O-])cc2)s1
2. COc1cc(C=Nc2nnc(S(=O)(=O)NC(=O)c3ccccc3)s2)ccc1O

1. 28.1
2. 33.2

Please supply cytotoxicity at 72 h, 0.015 µM for each of the following items, keeping them in order.
1. Nc1ccc(S(=O)(=O)Nc2nnc(S(=O)(=O)NC(=O)c3ccccc3N)s2)cc1
2. COc1ccccc1C=Nc1nnc(S(=O)(=O)NC(=O)c2ccccc2)s1

1. 33.6
2. 33.2
